biological target: Histone-lysine N-methyltransferase EZH2 (Homo sapiens, UniProt Q15910, Y641F); test: Biological Assay: EZH2 Histone Methyl Transferase Assay: The effectiveness of compounds of the present invention as inhibitors of histone methyl transferases can be readily tested by assays known to those skilled in the art. For example, in vitro histone methyl transferase assays may be conducted with a relevant purified histone methyl transferase and an appropriate synthetic substrate to determine the inhibitory activity of the compounds. Assays for inhibition of EZH2 by the instant compounds were performed in 384-well plates with reaction mixtures containing 350 nM of histone peptide substrate (ATKAAR-K(Me2)-SAPATGGVKKPHRYRPG-GK(Biotin), 500 nM S-[methyl-3H]adenosyl-L-methionine (55-85 Ci/mmol), 50 mM Tris-HCl (pH 9.0), 50 mM NaCl, 1 mM dithiothreitol, Tween-20 at 0.01% and fatty-acid free bovine serum albumin at 0.01%, and recombinant EZH2-641F complex (EZH2 Y641F/EED/SUZ12/RbAp48/AEBP2) at 5 nM (>98% purity, BPS Bioscience) or 15 nM (50% purity, in-house). Reaction mixtures were incubated at room temperature for 3 hours, and the reactions were terminated by 0.005% poly-L-lysine solution in 20 mM Tris-HCl (pH 7.5) and 150 mM NaCl. Reaction products were captured by binding to strepavidin-conjugated imaging beads. Incorporation of radioactive methyl group into the histone peptide substrate was determined in Leadseeker (GE Healthcare) by means of scintillation proximity assay.
Sequence (Q15910 whole entry Y641F): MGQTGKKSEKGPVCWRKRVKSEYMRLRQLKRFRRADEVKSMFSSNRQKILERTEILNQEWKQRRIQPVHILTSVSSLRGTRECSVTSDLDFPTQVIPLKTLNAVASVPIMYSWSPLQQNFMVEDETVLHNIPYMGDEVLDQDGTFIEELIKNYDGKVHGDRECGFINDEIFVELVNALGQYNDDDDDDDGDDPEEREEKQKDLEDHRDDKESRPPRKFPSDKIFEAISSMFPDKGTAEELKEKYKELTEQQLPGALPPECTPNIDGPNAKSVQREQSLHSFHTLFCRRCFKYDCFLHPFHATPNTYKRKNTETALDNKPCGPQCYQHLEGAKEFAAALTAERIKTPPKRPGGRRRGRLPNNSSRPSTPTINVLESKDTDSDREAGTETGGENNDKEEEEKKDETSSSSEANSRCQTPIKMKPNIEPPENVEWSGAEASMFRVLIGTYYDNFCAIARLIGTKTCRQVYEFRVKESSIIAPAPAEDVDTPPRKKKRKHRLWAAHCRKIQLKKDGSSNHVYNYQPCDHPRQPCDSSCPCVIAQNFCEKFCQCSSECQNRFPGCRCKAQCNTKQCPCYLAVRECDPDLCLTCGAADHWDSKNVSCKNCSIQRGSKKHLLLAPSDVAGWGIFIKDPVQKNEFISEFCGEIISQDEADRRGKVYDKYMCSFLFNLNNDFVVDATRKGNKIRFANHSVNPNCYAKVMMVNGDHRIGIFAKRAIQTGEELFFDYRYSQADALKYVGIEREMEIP
pIC50: −log10 of the molar value.
Listed here: items and their measured pIC50.

compound | pIC50
C=C(C)C1(C)Cc2cc(C(=O)NCc3c(CCC)cc(C)[nH]c3=O)cc(-c3cnc(N4CCNCC4)nc3)c2O1 (centres undefined) | > 6.30
C=C(C)C1(C)Cc2cc(C(=O)NCc3c(CCC)cc(C)[nH]c3=O)cc(-c3ccc(N4CCNCC4)nc3)c2O1 (centres undefined) | > 6.30
COc1ccc(-c2cc(C(=O)NCc3c(C)cc(C)[nH]c3=O)cc3c2OCC3(C)C)cn1 | < 6.00
CCCc1cc(C)[nH]c(=O)c1CNC(=O)c1cc2c(c(-c3ccc(N4CCNCC4)nc3)c1)OC(C)(C(C)C)C2 (centres undefined) | > 6.30
CCC1COc2cc(C(=O)NCc3c(C)cc(C)[nH]c3=O)cc(-c3ccc(N4CCNCC4)nc3)c2O1 (centres undefined) | < 6.00
Cc1cc(C)c(CNC(=O)c2cc(Br)c3c(c2)OC/C=C\CO3)c(=O)[nH]1 | < 6.00
C=C(C)C1(C)Cc2cc(C(=O)NCc3c(C)cc(C)[nH]c3=O)cc(-c3ccc(N4CCNCC4)nc3)c2O1 (centres undefined) | > 6.30
COc1ccc(-c2cc(C(=O)NCc3c(C)cc(C)[nH]c3=O)cc3c2OC(C)(C(C)C)C3)cn1 (centres undefined) | < 6.00
Cc1cc(C)c(CNC(=O)c2cc3c(c(C(F)(F)F)c2)OC(C)(C)C3)c(=O)[nH]1 | < 6.00
